log10 of Ki for D(2) dopamine receptor (Homo sapiens, UniProt P14416), merged from several publications.
Each number you see is log10 of Ki, and the unit inside the log is nM.

Record excerpt, results attached:
>  <COMPOUND>
COc1ccc(C2(O)CCN(Cc3c[nH]c4ccccc34)CC2)cc1

>  <log10 of Ki>
2.25

$$$$
>  <COMPOUND>
CN(CCCCOc1ccc2c(c1)NC(=O)CC2)CC1CC1c1cccc(Cl)c1Cl (stereo not given)

>  <log10 of Ki>
2.51

$$$$
>  <COMPOUND>
COc1ccc(-c2cc(CCCCN3CCN(c4ccccc4)CC3)on2)cc1OC

>  <log10 of Ki>
3.53

$$$$
>  <COMPOUND>
COc1ccccc1N1CCN(CCCCc2cc(-c3cccs3)no2)CC1

>  <log10 of Ki>
2.86

$$$$
>  <COMPOUND>
COc1ccccc1N1CCN(CCCCNC(=O)/C=C/c2ccc3c(c2)OCO3)CC1

>  <log10 of Ki>
1.01

$$$$

Hello, I am looking for reported log10 of Ki with D(2) dopamine receptor (Homo sapiens, UniProt P14416) for COc1ccccc1N1CCN(CCCCNC(=O)/C=C/c2ccc(C=O)cc2)CC1 . Could you help?
1.06

Further, for CCc1ccc2c(c1)C(C1=C[C@H](C)N(C)CC1)=Nc1cc(Cl)ccc1N2 ?
1.45

Same question, Cc1nnn(C2CCN(Cc3ccccc3)CC2)c1-c1ccccc1 this time
3.08

Could you do the same for Cc1cccc(C#N)c1-c1cccc2c1-c1cccc3c1[C@@H](C2)N(C)CC3 , please?
2.70

---

Across several studies, compounds have been characterized by their Ki on D(2) dopamine receptor (Homo sapiens, UniProt P14416); a selection follows.
Sequence (P14416 whole entry): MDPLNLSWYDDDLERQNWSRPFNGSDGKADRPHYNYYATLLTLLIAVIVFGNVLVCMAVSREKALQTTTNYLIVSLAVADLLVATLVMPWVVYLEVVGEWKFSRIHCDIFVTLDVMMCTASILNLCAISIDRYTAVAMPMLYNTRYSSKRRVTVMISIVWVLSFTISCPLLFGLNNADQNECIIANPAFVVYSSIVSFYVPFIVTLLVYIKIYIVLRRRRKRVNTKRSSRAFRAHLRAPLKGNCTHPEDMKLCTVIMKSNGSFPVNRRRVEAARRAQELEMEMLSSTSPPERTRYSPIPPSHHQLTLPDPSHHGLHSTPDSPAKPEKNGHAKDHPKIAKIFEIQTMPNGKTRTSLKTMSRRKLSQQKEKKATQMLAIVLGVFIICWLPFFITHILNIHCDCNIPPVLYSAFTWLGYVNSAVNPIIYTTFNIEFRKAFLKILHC
Ki class ranges: one = under 20 nM, two = from 20 nM up to 300 nM, three = 300 nM and over

Reference set (10 entries):
>  <COMPOUND>
CSc1ccccc1N1CCN(CCCCCC(=O)N2CCc3ccccc3C2)CC1

>  <CLASS>
two

$$$$
>  <COMPOUND>
CCCN(CCCCN1CCN(c2ccccc2)CC1)C1CCc2ccc(O)cc2C1 (stereo in doubt; (-)-13)

>  <CLASS>
one

$$$$
>  <COMPOUND>
COc1ccccc1N1CCN(CC(O)CN2C(=O)NC(C)(c3cccc4ccccc34)C2=O)CC1 (stereo unspecified)

>  <CLASS>
two

$$$$
>  <COMPOUND>
CC(C)c1ccccc1OCCN1CCC(NS(=O)(=O)c2cccs2)C1 (stereo unspecified)

>  <CLASS>
one

$$$$
>  <COMPOUND>
COc1ccccc1N1CCN(CCCCN2C(=O)C=C(c3ccccc3)C2=O)CC1

>  <CLASS>
three

$$$$
>  <COMPOUND>
Clc1ccc2c(c1)N=C(N1CCN(Cc3ccc(OCCCN4CCCCC4)cc3)CC1)c1ccccc1N2

>  <CLASS>
two

$$$$
>  <COMPOUND>
N#Cc1cc(N2CCN(CC[C@H]3CC[C@H](NC(N)=O)CC3)CC2)cc(C(F)(F)F)c1

>  <CLASS>
two

$$$$
>  <COMPOUND>
Cc1cccc(C(=O)NCN2CCN(c3ccccc3Cl)CC2)c1

>  <CLASS>
three

$$$$
>  <COMPOUND>
COc1ccc2[nH]cc(C3CC(=O)N(CCCCN4CCC(c5c[nH]c6ccccc56)CC4)C3=O)c2c1 (stereo unspecified)

>  <CLASS>
one

$$$$
>  <COMPOUND>
O=C1CCc2ccc(OCCCCN3CCN(c4cccc5c4OCCC5)CC3)nc2N1

>  <CLASS>
one

$$$$

Please classify: FC(F)(F)c1cccc(N2CCN(CCCCNc3ncc(-c4ccccc4)o3)CC2)c1
three

Now give it for CC(Nc1nccc(NCCOc2ccc(F)cc2)n1)c1ccccc1 (racemic) too.
three

---

Field: Ki. System: D(2) dopamine receptor (Homo sapiens). Provenance: assorted publications.
Mark 1 only for Ki values smaller than 100 nM; exact matches and larger values are -1.

Worked set:
>  <COMPOUND>
COc1ccc(-c2cc(N3CCN(C)CC3)nc3c2ccn3S(=O)(=O)CC(C)C)cc1

>  <CLASS>
1

$$$$
>  <COMPOUND>
CCC(=O)NCCCCN1CCN(c2ccccc2OC)CC1

>  <CLASS>
1

$$$$
>  <COMPOUND>
COc1ccccc1N1CCN(CCCCNC(=O)c2cc3cccc(OC)c3o2)CC1

>  <CLASS>
-1

$$$$
>  <COMPOUND>
COc1ccccc1N1CCN(CCCNC(=O)c2ccccc2I)CC1

>  <CLASS>
-1

$$$$
>  <COMPOUND>
CCCC(Oc1cc(Cl)ccc1Cl)c1nc(N)nc(N2CCN(C)CC2)n1 (racemic)

>  <CLASS>
-1

$$$$
>  <COMPOUND>
O=S(=O)(c1cccc2ncccc12)N1CCC(CCN2CCN(c3cccc(Cl)c3)CC2)CC1

>  <CLASS>
1

$$$$

In plain terms, does CN1CCc2cc(-c3ccc(O)cc3)cc3c2[C@H]1Cc1ccc(O)c(O)c1-3 come in under 100 nM for Ki?
1

Would you kindly repeat that for COc1ccccc1N1CCN(CCNC(=O)c2ccc3ccccc3c2)CC1 ?
-1

Input CCC(Sc1cccc(Cl)c1Cl)c1nc(N)nc(N2CCN(C)CC2)n1 (racemic)
-1

Lookup O=C1CCc2ccccc2N1CCCN1CCN(c2ccccc2Cl)CC1
-1

Please answer likewise for CCN1C(=O)c2ccccc2[S@+]([O-])c2ccc(C(=O)N[C@H](C)c3ccc(Br)cc3)cc21
-1

Another compound to check: COc1ccccc1N1CCN(CCCCc2cc(-c3ccc(F)cc3)no2)CC1
-1

Please give the result for CCc1nc2c(N3CCNCC3)ccnc2n1Cc1cccc(Cl)c1 too.
-1

// query: COc1ccc(-c2cc(CCCCN3CCN(C(c4ccccc4)c4ccccc4)CC3)on2)c(OC)c1
-1

Then this compound: O=S(=O)(N[C@H]1CCN(CCOc2ccccc2-c2ccccc2)C1)c1ccc(F)cc1
1

Try c1cnc(N[C@H]2CC[C@H](CCN3CCc4ccccc4C3)CC2)nc1 next.
-1

Similarly, O=C(NC1CCc2ccc(CCN3CCN(c4nsc5ccccc45)CC3)cc21)C1CC1 (stereo not given) ?
1

Same for CCc1cc(Cl)c(OC)c(C(=O)NC[C@@H]2CCCN2Cc2ccccc2)c1OCc1ccccc1
-1

What do we get for Cc1cccc(OCc2nc(N)nc(N3CCN(C)CC3)n2)c1 ?
-1

Same read-out for c1ccc(CN2CCC(n3nnnc3-c3ccccc3)CC2)cc1 ?
-1

Can you handle O=CC1=Cc2cn(S(=O)(=O)c3cccc4ccccc34)c3cccc(c23)O1 next?
-1

Request: O=C1COc2ccccc2N1CCCN1CCC(n2c(=O)[nH]c3ccc(F)cc32)CC1
1

Then this compound: Clc1ccc(N2CCN(CCCc3nc4ccccc4s3)CC2)cc1
-1

---

Ki for D(2) dopamine receptor (Homo sapiens, UniProt P14416) - collated from the literature.
Answer with a number only, understood to be in µM.

Examples with answers:
>  <COMPOUND>
CN[C@@H]1Cc2cccc3c2n(c(=O)n3CCCCCCCCOCCCCc2ccccc2)C1

>  <VALUE UNITS>
µM

>  <Ki>
0.0387

$$$$
>  <COMPOUND>
O=C1Cc2c(ccc3c2O[C@@H](CNCc2ccccc2)CC3)N1

>  <VALUE UNITS>
µM

>  <Ki>
0.0093

$$$$
>  <COMPOUND>
O=S(=O)(c1cccc2ncccc12)N1CCC(CCN2CCN(c3ccccc3)CC2)CC1

>  <VALUE UNITS>
µM

>  <Ki>
1.24

$$$$
>  <COMPOUND>
O=C(NC1CCc2ccc(CCN3CCN(c4nsc5ccccc45)CC3)cc21)c1ccccc1 (stereo not given)

>  <VALUE UNITS>
µM

>  <Ki>
0.022

$$$$

Then this compound:
Ki lookup needed for O=S(=O)(Nc1ccc([C@]23CNC[C@H]2C3)cc1)c1ccc(OC(F)(F)F)cc1 , thanks.
1

---

Ki for D(2) dopamine receptor (Homo sapiens, UniProt P14416), merged from several publications.
Hi! Could you send only the number? It should be in nM, unit omitted.

Request the reported Ki associated with CC(=O)NC1CCc2ccc(CCN3CCN(c4nsc5ccccc45)CC3)cc21 (stereo not drawn)
22

Request: O=C1c2ccccc2S(=O)(=O)N1CCCCN1CCN(c2cccc(Cl)c2Cl)CC1
26

What about Fc1ccc2c(C3CCN(CCCOc4ccc(CN5CCCCC5)c(F)c4)CC3)noc2c1 ?
11.6

Can you handle Nc1nc2c(s1)CCN(CCCCN1CCN(c3cccc(Cl)c3Cl)CC1)CC2 next?
22.4

Entry O=S1(=O)c2cccc3cccc(c23)N1CCCCCCN1CCN(c2ccc(Cl)cc2)CC1 please
336

Could you do the same for O=S(=O)(NC1CCN(CC(O)COc2ccccc2-c2ccccc2)CC1)c1cccc(Cl)c1 (stereo not drawn) , please?
343
